Data provenance is ChEMBL document CHEMBL1201862.

test system: LOX IMVI; experiment: NCI tumour cell line growth inhibition, 48 h
The source made the active and inactive calls. Rule as the data show it: active = GI50 up to about 1.1 µM and inactive = higher.
Outcome field: choose from active, inactive

Per the assay record, what outcome was assigned to CN(CCO)c1nc(N)cc(=O)[nH]1 ?
inactive

Per the assay record, what outcome was assigned to CC1(C)N/C(=C\C=O)C(C)(C)N1O ?
inactive

Per the assay record, what outcome was assigned to Oc1cccc(Nc2cc(O)nc(O)n2)c1 ?
inactive

Per the assay record, what outcome was assigned to NC1=C(N2CCOCC2)C(=O)NC2=N/C(=C\c3ccccc3O)C(=O)N21 ?
inactive

Per the assay record, what outcome was assigned to O=C(Nc1c(O)[nH]c(=S)[nH]c1=O)c1ccccn1 ?
inactive

Per the assay record, what outcome was assigned to CC1=NN(c2ccccc2Cl)C2(C1)C(Cl)C(=O)N2c1nc2ccccc2s1 (configuration not stated) ?
inactive

Per the assay record, what outcome was assigned to CC1=NN(c2ccccc2)C(=O)/C1=C\c1ccc([N+](=O)[O-])cc1 ?
inactive

Per the assay record, what outcome was assigned to O=C1Oc2cc3c(c4cccc1c24)OCN(c1ccccc1)C3 ?
inactive

Per the assay record, what outcome was assigned to O=C1CC(c2cccc([N+](=O)[O-])c2)C2(C(=O)NC(=S)NC2=O)C(c2cccc([N+](=O)[O-])c2)C1 (configuration not stated) ?
inactive

Per the assay record, what outcome was assigned to CCOc1ccccc1NC(=O)CCC(=O)OC ?
inactive

Per the assay record, what outcome was assigned to CSc1c(C)c(C)nn1-c1ccccc1 ?
inactive

Per the assay record, what outcome was assigned to CNC(=O)OCc1nc(SSc2nc(COC(=O)NC)c(COC(=O)NC)n2C)n(C)c1COC(=O)NC ?
inactive

Per the assay record, what outcome was assigned to Cc1cc2c(c3c1c1ccccc1n3C)C(=O)c1ccccc1C2=O ?
inactive

Per the assay record, what outcome was assigned to CCCCCCCCCCCCC1N=C(N)N2CCCC2=C1C(=O)OC (configuration not stated) ?
inactive

Per the assay record, what outcome was assigned to Brc1ccccc1/C=C\C1(c2ccccc2)OCCO1 ?
inactive

Per the assay record, what outcome was assigned to O=[N+]([O-])/C(Cl)=C(/C(Cl)=C(Cl)Cl)N1CCOCC1 ?
inactive

Per the assay record, what outcome was assigned to CC(C)(C)N/N=N/c1cn(C2OC(CO)C(O)C2O)c(=O)[nH]c1=O (configuration not stated) ?
inactive

Per the assay record, what outcome was assigned to Cc1cc(OP2(=O)NCc3ncccc3O2)ccc1Cl (configuration not stated) ?
inactive

Per the assay record, what outcome was assigned to CCOC(=O)C#Cc1ccc([N+](=O)[O-])cc1 ?
inactive

Per the assay record, what outcome was assigned to O=c1[nH]c(=O)n(C2CC(O)C(CO)O2)cc1/C=C/Br (configuration not stated) ?
inactive

Per the assay record, what outcome was assigned to CC(C)(C)c1cc2nc(c1)C(C(F)(F)F)(C(F)(F)F)OB(Br)OC2(C(F)(F)F)C(F)(F)F ?
active

Per the assay record, what outcome was assigned to CCCCCCCCCCCC[C@@H](O)[C@H]1CC[C@H]([C@H]2CC[C@H]([C@H](O)CC[C@H](O)CCCCCCCC3=C[C@H](C)OC3=O)O2)O1 ?
inactive

* * *

tested on: A549; experiment: NCI tumour cell line growth inhibition, 48 h
Active and inactive are the calls of the source. Cut-off read from the data, not from the text of the source: active = GI50 up to about 1.1 µM and inactive = higher.
Consider the following molecules; for each one, report its GI50.

Test item O=[N+]([O-])/C(Cl)=C(/C(Cl)=C(Cl)Cl)N1CCOCC1 ; A549; reported GI50 was 5.73 µM (inactive)

Test item Oc1cccc(-c2cc(O)c3cc4c(cc3n2)OCO4)c1 ; A549; reported GI50 was 5.27 µM (inactive)

Test item COc1nc(NC2OC(COC(C)=O)C(OC(C)=O)C(OC(C)=O)C2OC(C)=O)c(/N=C(\C)C(C)=O)c(=O)n1C (stereo not given) ; A549; reported GI50 was > 100 µM (inactive)

Test item CCOC(=O)/C=C(/C(=O)OCC)n1ccc(=O)n(Cc2cn(COCCOC(C)=O)nn2)c1=O ; A549; reported GI50 was > 100 µM (inactive)

Test item C/C(=C\C(=O)O)C(=O)N(C)c1ccccc1I ; A549; reported GI50 was > 100 µM (inactive)

* * *

test system: CCRF-CEM; test: NCI tumour cell line growth inhibition, 48 h
Calls of active or inactive are those of the source. Rule as the data show it: active = GI50 up to about 1.1 µM and inactive = higher.
Consider the following molecules; for each one, report its GI50.

# GI50 (molecule: Brc1ccccc1/C=C\C1(c2ccccc2)OCCO1 ) is 3.03 µM (inactive)

# GI50 (molecule: Cc1cc(N)ccc1C=O ) is > 100 µM (inactive)

# GI50 (molecule: Cc1ccccc1Nc1cn(CCOc2ccccc2)c(=O)n(CCOc2ccccc2)c1=O ) is > 100 µM (inactive)

# GI50 (molecule: C(=N\Cc1ccccc1)/c1ccccc1-c1ccccc1/C=N/Cc1ccccc1 ) is 2.65 µM (inactive)

# GI50 (molecule: COc1cc(C(SCc2ccccc2)SCc2ccccc2)ccc1O ) is > 10 µM (inactive)

# GI50 (molecule: COC(=O)C(CCC1(C)OCCO1)C(C)=O (stereo unspecified) ) is > 100 µM (inactive)

* * *

test system: HOP-92; assay: NCI tumour cell line growth inhibition, 48 h
The source made the active and inactive calls. Rule as the data show it: active = GI50 up to about 1.1 µM and inactive = higher. Peptide text beside a SMILES is read from it. * marks the point of attachment. Cbz = O=C(OCc1ccccc1)*; OBn = c1ccc(CO*)cc1
readoutName: GI50

# GI50 (compound: Cc1cc2c(C(C)C)c(O)c(O)c(/C=N/c3cc(C(F)(F)F)ccc3Cl)c2c(O)c1-c1c(C)cc2c(C(C)C)c(O)c(O)c(/C=N/c3cc(C(F)(F)F)ccc3Cl)c2c1O ) is 16.6 µM (inactive)

# GI50 (compound: Cc1cccc(/N=N/c2c(C)nn(C(=O)CC(=O)Nc3ccc(Cl)cc3)c2C)c1 ) is 21 µM (inactive)

# GI50 (compound: CC1CN=C(Nc2cccc(F)c2)S1 (configuration not stated) ) is > 100 µM (inactive)

# GI50 (compound: CC(=O)c1c2c(cc3c1CC1(Cc4cc5c(cc4C1)CCC5)C3)CCC2 ) is > 100 µM (inactive)

# GI50 (compound: NC(=O)N/N=C1/CCCC/C1=C\c1ccccc1 ) is > 100 µM (inactive)

# GI50 (compound: CCOC(=O)/C(O)=C1\C(=O)N(C)C(=O)C1c1ccc(OC)c(OC)c1 (configuration not stated) ) is > 100 µM (inactive)

# GI50 (compound: CCOC(=O)C#Cc1ccc([N+](=O)[O-])cc1 ) is 1.8 µM (inactive)

# GI50 (compound: Nc1ccc(-c2nc3ccc(F)cc3s2)cc1I ) is 24.8 µM (inactive)

# GI50 (compound: COc1cc2c(cc1OC)C(Cc1c3ccccc3cc3ccccc13)N(C)CC2 (configuration not stated) ) is 11.4 µM (inactive)

# GI50 (compound: Cc1cc(NS(=O)(=O)c2ccc(NC(=O)c3cccc4c(Nc5ccc(S(=O)(=O)Nc6cc(C)on6)cc5)c5ccccc5nc34)cc2)no1 ) is 17.5 µM (inactive)

# GI50 (compound: O=C1c2ccccc2C(=O)C12CCc1ccccc12 ) is > 100 µM (inactive)

# GI50 (compound: Brc1c(C#CCC(c2ccccc2)(c2ccccc2)c2ccccc2)ccc(C#CCC(c2ccccc2)(c2ccccc2)c2ccccc2)c1Br ) is > 100 µM (inactive)

# GI50 (compound: N#COc1ccc(Oc2ccccc2)cc1 ) is 43.8 µM (inactive)

# GI50 (compound: O=C(c1nc2ccccc2nc1O)C(O)c1ccccc1 (configuration not stated) ) is 63.7 µM (inactive)

# GI50 (compound: NC(=O)CCC(NC(=O)Cc1ccccc1)C(=O)O (configuration not stated) ) is 1060 µM (inactive)

# GI50 (compound: O=S(O)CCCCCSSCCCCSSCCCCCS(=O)O ) is > 100 µM (inactive)

# GI50 (compound: CC(=O)Oc1cc2c(cc1OCC(F)(F)F)[C@H]1CC[C@]3(C)[C@@H](OC(C)=O)CC[C@H]3[C@@H]1CC2=O ) is 13.2 µM (inactive)

# GI50 (compound: COc1cc(COC(=O)N2CCCCC2C(=O)O)c([N+](=O)[O-])cc1OC (configuration not stated) ) is > 100 µM (inactive)

# GI50 (compound: CC(C)/C(Cl)=N\OC(=O)Nc1ccc(F)c([N+](=O)[O-])c1 ) is 2.22 µM (inactive)

# GI50 (compound: COC(=O)CNC(=O)C(C)NC(=O)C(CC(=O)OCc1ccccc1)NC(=O)OCc1ccccc1 (stereo not drawn) (Cbz-Asp(OBn)-Ala-Gly-OMe; configuration not given here) ) is 66.5 µM (inactive)

# GI50 (compound: CCOC(=O)NC(=O)c1cn(-c2ccc(CCOC(=O)CCCCCCCCC(=O)OCCc3ccc(-n4cc(C(=O)NC(=O)OCC)c(=O)[nH]c4=O)cc3)cc2)c(=O)[nH]c1=O ) is 26 µM (inactive)

# GI50 (compound: c1csc(-c2nnc(C34CC5CC(CC(C5)C3)C4)o2)c1 ) is 29.1 µM (inactive)

# GI50 (compound: CC1(C)C2CC(=O)C1(C)C(O)C2Br (configuration not stated) ) is > 100 µM (inactive)

# GI50 (compound: O=C(Nc1c(O)[nH]c(=S)[nH]c1=O)c1ccccn1 ) is 39.1 µM (inactive)

# GI50 (compound: Cc1ccc(/C=C/C(=O)c2sc(-c3nc(C)c(C(=O)/C=C/c4ccc(C)cc4)s3)nc2C)cc1 ) is > 100 µM (inactive)

# GI50 (compound: N#CC1CC2(CCN1C(=O)c1ccccc1)OCCO2 (configuration not stated) ) is > 100 µM (inactive)

# GI50 (compound: O=c1[nH]c(=O)n(C2OC(CO)C(O)C2O)cc1Oc1ccccc1 (configuration not stated) ) is > 100 µM (inactive)

# GI50 (compound: CN(CCO)c1nc(N)cc(=O)[nH]1 ) is > 100 µM (inactive)

# GI50 (compound: O=C1Oc2cc3c(c4cccc1c24)OCN(c1ccccc1)C3 ) is 41.7 µM (inactive)

# GI50 (compound: Cc1cc(OP2(=O)NCc3ncccc3O2)ccc1Cl (configuration not stated) ) is > 100 µM (inactive)

# GI50 (compound: c1ccc2c(c1)Sc1ccccc1N2CC1CN2CCC1CC2 (configuration not stated) ) is 11 µM (inactive)

# GI50 (compound: O=C(NN1C(=O)CS(=O)(=O)C1c1ccc(C(F)(F)F)cc1)c1ccncc1 (configuration not stated) ) is > 100 µM (inactive)

# GI50 (compound: COCCOCOC(C)(C)[C@H](CCO)O[Si](c1ccccc1)(c1ccccc1)C(C)(C)C ) is 10.6 µM (inactive)

# GI50 (compound: Fc1ccccc1C1SCc2nc3ccccc3n21 (configuration not stated) ) is 19.7 µM (inactive)

# GI50 (compound: N#C/C(=C\c1ccccc1)C(NO)Nc1ccccc1 (configuration not stated) ) is 57.3 µM (inactive)

# GI50 (compound: COc1ccc(/C=C2\CN(C)CC3C2=NC(=S)NC3c2ccc(OC)cc2)cc1 (configuration not stated) ) is 3.21 µM (inactive)

# GI50 (compound: O=C1Cc2ccccc2CCc2ccccc21 ) is 35.6 µM (inactive)

# GI50 (compound: O=c1ncccn1C1C=C(CO)C(O)C1O (configuration not stated) ) is > 50 µM (inactive)

# GI50 (compound: CN(C)C(CN)CC1=C(CC(CN)N(C)C)CCC1 (configuration not stated) ) is > 100 µM (inactive)

# GI50 (compound: CC(C(N)C(=O)NC(C(=O)O)C1OC(n2ccc(=O)[nH]c2=O)C(O)C1O)C(O)c1ccc(O)cn1 (configuration not stated) ) is > 100 µM (inactive)

# GI50 (compound: COC(=O)CC[C@@H](C)[C@H]1CC[C@H]2[C@@H]3CC[C@@H]4C[C@H](O)CC[C@]4(C)[C@H]3CC[C@]12C ) is 13.8 µM (inactive)

# GI50 (compound: CC(C)(C)N/N=N/c1cn(C2OC(CO)C(O)C2O)c(=O)[nH]c1=O (configuration not stated) ) is > 100 µM (inactive)
